Biological target: Prostaglandin D2 receptor 2 (Homo sapiens)
Sequence (Q9Y5Y4 whole entry): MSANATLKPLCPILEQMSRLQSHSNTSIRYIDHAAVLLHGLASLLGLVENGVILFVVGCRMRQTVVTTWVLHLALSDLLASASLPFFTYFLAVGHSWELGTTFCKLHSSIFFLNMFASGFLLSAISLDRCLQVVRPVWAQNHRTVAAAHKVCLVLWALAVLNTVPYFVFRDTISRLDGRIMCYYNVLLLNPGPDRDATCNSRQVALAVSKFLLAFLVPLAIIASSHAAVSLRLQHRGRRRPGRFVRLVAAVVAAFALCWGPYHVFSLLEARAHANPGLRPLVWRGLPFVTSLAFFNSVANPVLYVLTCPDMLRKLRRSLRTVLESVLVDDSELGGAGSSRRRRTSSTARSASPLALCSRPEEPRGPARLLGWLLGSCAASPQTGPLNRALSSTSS
Test: […] activity at human CRTh2 expressed in HEK cells assessed as forskolin-induced intracellular cAMP accumulation by ELISA based chemiluminescence assay
pEC50: −log10 of the molar value.
measure: pEC50

{"columns": ["substance.smiles", "measured"],
 "data": [
  ["CCN(c1nc(C(=O)O)cs1)[C@H]1c2ccccc2N(C(=O)OCc2ccccc2)[C@H]2CCC[C@@H]12", 7.92]
]}

* * *

molecular target: Prostaglandin D2 receptor 2 (Homo sapiens)
Criterion: IC50 strictly less than 4 nM. Met: fulfilled. Not met: not fulfilled.

{"columns": ["substance.smiles", "assigned.class"],
 "data": [
  ["O=C(O)CCC(=O)N(C1CC1)[C@H]1c2ccc(Cl)cc2N(C(=O)c2ccc(OC(F)(F)F)cc2)[C@H]2CCC[C@H]21", "not fulfilled"],
  ["O=C(O)CCC(=O)N(C1CC1)[C@H]1c2cc(F)ccc2N(C(=O)c2ccc(OC(F)(F)F)cc2)[C@H]2CCC[C@H]21", "fulfilled"],
  ["O=C(O)CCC(=O)N(C1CC1)[C@H]1c2ccccc2N(C(=O)c2cccc(F)c2)[C@H]2CC[C@H]21", "not fulfilled"],
  ["O=C(O)COC(=O)N(C1CC1)[C@H]1c2ccccc2N(C(=O)c2ccc(OC(F)(F)F)cc2)[C@H]2CC[C@H]21", "fulfilled"],
  ["O=C(O)COC(=O)N(C1CC1)[C@H]1c2ccccc2N(C(=O)c2cccc(F)c2)[C@H]2CC[C@H]21", "fulfilled"],
  ["O=C(O)COC(=O)N(C1CC1)[C@H]1c2ccccc2N(C(=O)c2ccc(F)cc2)[C@H]2CC[C@H]21", "fulfilled"],
  ["O=C(O)CCC(=O)N(C1CC1)[C@H]1c2cc(F)ccc2N(C(=O)c2ccc(SC(F)(F)F)cc2)[C@H]2CCC[C@H]21", "fulfilled"],
  ["O=C(O)CCC(=O)N(C1CC1)[C@H]1c2cc(F)c(Cl)cc2N(C(=O)c2ccc(OC(F)(F)F)cc2)[C@H]2CCC[C@H]21", "not fulfilled"],
  ["O=C(O)CCC(=O)N(C1CC1)[C@H]1c2ccccc2N(C(=O)c2cccc(OC(F)(F)F)c2)[C@H]2CC[C@H]21", "not fulfilled"],
  ["O=C(O)CCC(=O)N(C1CC1)[C@H]1c2ccccc2N(C(=O)c2ccc(F)cc2)[C@H]2CC[C@H]21", "not fulfilled"]
]}

* * *

test: Volume of distribution in rat at 3 mg/kg, iv; type: ADME, organism-based; conditions: in vivo

{"columns": ["substance.smiles", "Vd"],
 "data": [
  ["O=C(O)CCC(=O)N(C1CC1)[C@H]1c2cc(F)ccc2N(C(=O)c2ccc(OC(F)(F)F)cc2)[C@H]2CCC[C@H]21", "5.8 L/kg"]
]}

Taken from ChEMBL document CHEMBL4196118.
